Read-out: Intercellular Adhesion Molecule 1 (ICAM1), ICAM1 (gene 3383)
Measurement Protocol: LTEA_HepaRG_ICAM1: Life Technologies and Expression Analysis (LTEA) Assay for Intercellular Adhesion Molecule 1 (ICAM1) using HepaRG (AID 2283507)
Cond: mRNA level, 48 h; actives raise or lower the signal
Activity calls are given as the source filed them. Rule for the calls: active = hit-call score of the fitted dose curve at least 0.9, where 1 is the maximum; inactive = score below 0.9.
Please answer using one outcome listed in active, inactive

[
  {
    "Compound": "CCOC(=O)c1ccccc1C(=O)OCC",
    "Assigned Class": "inactive"
  }
]

Fill in: this test's call for CCC1(c2ccccc2)C(=O)N=C(O)NC1=O (stereo not drawn) is ___ inactive

Record: `CCOS(=O)(=O)OCC` inactive

Record: O=C(O)C1C(C(=O)O)C2(Cl)C(Cl)=C(Cl)C1(Cl)C2(Cl)Cl (stereo not drawn) inactive

Record: `c1nc[nH]n1` active

Record: OCC1CO1 (stereo not drawn) inactive

Record: `CCCCCCCc1ccc(O)cc1` inactive

Record: `CCCCc1ccccc1` inactive

====

Measurement Protocol: Tanguay_ZF_120hpf_BRAI_legacy: (Legacy) Oregon State University Tanguay Lab 120 Hour Post-fertilization zebrafish Assay for Brain Malformation (AID 2283641)
Results filed as inconclusive are left out. Activity calls are given as the source filed them. The calls were made as follows: active = hit-call score of the fitted dose curve at least 0.9, where 1 is the maximum; inconclusive = response in the unintended direction; inactive = score below 0.9.
Measurement Kind: outcome

Some compounds with recorded outcome:
[
  {
    "Compound": "O=C(O)C1C(C(=O)O)C2(Cl)C(Cl)=C(Cl)C1(Cl)C2(Cl)Cl (stereo not given)",
    "outcome": "inactive"
  },
  {
    "Compound": "c1ccc2c(c1)Nc1ccccc1S2",
    "outcome": "inactive"
  },
  {
    "Compound": "O=P1(N(CCCl)CCCl)NCCCO1 (stereo not given)",
    "outcome": "inactive"
  },
  {
    "Compound": "Cc1ccc(N)cc1N",
    "outcome": "inactive"
  },
  {
    "Compound": "CSC(C)(C)C=NO",
    "outcome": "inactive"
  }
]

Fill blank: measured outcome of the compound `CCCCCCCc1ccc(O)cc1` is ____. inactive

Record: `CCOc1ccc(C(C)(C)COCc2cccc(Oc3ccccc3)c2)cc1` inactive

Record: CCOP(=S)(Oc1ccc([N+](=O)[O-])cc1)c1ccccc1 (stereo not given) inactive

====

Read-out: Pselectin, SELP (gene 6403)
Measurement Protocol: BSK_4H_Pselectin: BioMAP Diversity Plus: 4H Assay for Pselectin Biomarker Activity (AID 2283026)
Cond: primary human endothelial cells (HUVEC); actives raise or lower the signal
Active and inactive are the calls of the source. How the source made its calls: active means hit-call score of the fitted dose curve at least 0.9, where 1 is the maximum; inactive means score below 0.9.
Please answer using one outcome listed in active, inactive

Fill in: this test's call for `C=CC(=O)OCC(CC)(COC(=O)C=C)COC(=O)C=C` is ___ active

Record: `Cc1ccc(N)cc1N` inactive

====

Measurement Protocol: CCTE_Shafer_MEA_acute_per_burst_spike_number_mean: CCTE's Neural Acute Assay for Average Number of Spikes Per Burst, Shafer Lab (AID 2284015);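 note: hits are decreases in mean spikes per burst versus baseline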
Active and inactive are the calls of the source. Rule for the calls: active = hit-call score of the fitted dose curve at least 0.9, where 1 is the maximum; inactive = score below 0.9.
Please answer using one outcome listed in TRUE (active), FALSE (inactive)

Fill in: this test's call for `[N-]=[N+]=[N-]` is ___ FALSE

Record: ClC1=C(Cl)C2(Cl)C3C(Cl)C(Cl)CC3C1(Cl)C2(Cl)Cl (stereo not given) FALSE

Record: O=C(O)C1C(C(=O)O)C2(Cl)C(Cl)=C(Cl)C1(Cl)C2(Cl)Cl (stereo not given) FALSE

Record: `CC(Cl)(Cl)C(=O)O` FALSE

Record: `CCOc1ccc(C(C)(C)COCc2cccc(Oc3ccccc3)c2)cc1` FALSE

Record: `Cc1ccc(N)cc1N` FALSE

Record: CCC1(c2ccccc2)C(=O)N=C(O)NC1=O (stereo not given) FALSE

====

Read-out: Human Leukocyte Antigen - DR isotype (HLADR), HLA-DRA (gene 3122)
Measurement Protocol: BSK_3C_HLADR: BioMAP Diversity Plus: 3C Assay for Human Leukocyte Antigen - DR isotype (HLADR) Biomarker Activity (AID 2283019);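 for outcome: ELISA of cell-surface HLA-DR on HUVEC 24 h after dosing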
Cond: primary human endothelial cells (HUVEC); actives raise or lower the signal
The source made the active and inactive calls. How the source made its calls: active means hit-call score of the fitted dose curve at least 0.9, where 1 is the maximum; inactive means score below 0.9.
Please answer using one outcome listed in active, inactive

Consider the worked cases shown below.
[
  {
    "Compound": "O=C(O)C1C(C(=O)O)C2(Cl)C(Cl)=C(Cl)C1(Cl)C2(Cl)Cl (stereo unspecified)",
    "Assigned Class": "inactive"
  },
  {
    "Compound": "COCCOCCO",
    "Assigned Class": "inactive"
  },
  {
    "Compound": "CCCCC(CC)COP(=O)(Oc1ccccc1)Oc1ccccc1 (stereo unspecified)",
    "Assigned Class": "active"
  },
  {
    "Compound": "CC(O)C(F)(F)C(F)(F)F (stereo unspecified)",
    "Assigned Class": "inactive"
  },
  {
    "Compound": "c1ccc2c(c1)Nc1ccccc1S2",
    "Assigned Class": "inactive"
  },
  {
    "Compound": "O=S(=O)(F)C(F)(F)C(F)(F)C(F)(F)C(F)(F)C(F)(F)C(F)(F)C(F)(F)C(F)(F)F",
    "Assigned Class": "inactive"
  }
]

Fill in: this test's call for `CCCCc1ccccc1` is ___ inactive

Record: `Nc1cc2c3c(c1)C(c1ccccc1)=N[C@@H](NC(=O)c1cccnc1)C(=O)N3CC2` inactive

Record: `CCOP(=S)(S)OCC` inactive

Record: `OCC(F)(F)OC(F)(F)C(F)(F)OC(F)(F)C(F)(F)OC(F)(F)CO` inactive

Record: `O=C(O)C(F)(F)C(F)(F)C(=O)O` inactive

Record: `N#Cc1c(-c2ccc(Cl)cc2)[nH]c(C(F)(F)F)c1Br` active

Record: COC(=O)C(F)(F)C(F)(F)OC(F)(C(F)(F)F)C(F)(F)OC(F)=C(F)F (stereo unspecified) inactive

Record: `O=C(O)C(F)(F)OC(F)(F)C(F)(F)OC(F)(F)F` inactive

Record: `ClC(Cl)=C(c1ccc(Cl)cc1)c1ccccc1Cl` active

Record: `Nc1ccc2ccccc2c1` inactive

Record: `CCCCCCCc1ccc(O)cc1` active

Record: OCC1CO1 (stereo unspecified) inactive

====

Read-out: Bcl-2 (BID) gene, BID (gene 637)
Measurement Protocol: LTEA_HepaRG_BID: Life Technologies and Expression Analysis (LTEA) Assay for Bcl-2 (BID) gene using HepaRG (AID 2283476)
Cond: mRNA level, 48 h; actives raise or lower the signal
Calls of active or inactive are those of the source. How the source made its calls: active means hit-call score of the fitted dose curve at least 0.9, where 1 is the maximum; inactive means score below 0.9.
Measurement Kind: AC50

Some molecules with recorded AC50:
[
  {
    "Molecule": "CCC(C)(C)c1ccc(O)cc1",
    "AC50": "inactive"
  },
  {
    "Molecule": "CSC(C)(C)C=NO",
    "AC50": "inactive"
  },
  {
    "Molecule": "Cc1ccc(O)cc1C",
    "AC50": "inactive"
  },
  {
    "Molecule": "O=P1(N(CCCl)CCCl)NCCCO1 (stereo unspecified)",
    "AC50": "inactive"
  }
]

Fill blank: measured AC50 of the molecule ClC1=C(Cl)C2(Cl)C3C(Cl)C(Cl)CC3C1(Cl)C2(Cl)Cl (stereo unspecified) is ____. inactive

Record: `ClC(Cl)c1ccccc1` inactive

Record: `c1nc[nH]n1` 89.7 nM (active)

Record: CCC1(c2ccccc2)C(=O)N=C(O)NC1=O (stereo unspecified) inactive

Record: `O=C(O)C(Cl)Cl` inactive

Record: `Cc1ccc(N)cc1N` inactive

Record: `Nc1ccc2ccccc2c1` inactive

Record: CCOP(=S)(Oc1ccc([N+](=O)[O-])cc1)c1ccccc1 (stereo unspecified) inactive

Record: `c1cc2c3c(cccc3c1)CC2` inactive

Record: `CC(Cl)(Cl)C(=O)O` inactive

Record: `CCCCc1ccccc1` inactive

Record: `O=[N+]([O-])c1ccc(Cl)c(Cl)c1` inactive

====

Measurement Protocol: APR_HepG2_MitoticArrest_72hr: Apredica 72-hour HepG2 Assay for Mitotic Arrest (AID 2282918)
Cond: high-content imaging, actives raise or lower the signal
Calls of active or inactive are those of the source. The calls were made as follows: active = hit-call score of the fitted dose curve at least 0.9, where 1 is the maximum; inactive = score below 0.9.
Please answer using one outcome listed in YES = active, NO = inactive

[
  {
    "Molecule": "c1ccc2c(c1)Nc1ccccc1S2",
    "Assigned Class": "NO"
  }
]

Fill in: this test's call for `c1nc[nH]n1` is ___ NO

Record: `CC(Cl)(Cl)C(=O)O` NO

Record: CCC1(c2ccccc2)C(=O)N=C(O)NC1=O (stereo unspecified) NO

Record: `CCOc1ccc(C(C)(C)COCc2cccc(Oc3ccccc3)c2)cc1` YES

Record: `Cc1ccc(O)cc1C` NO

Record: `CCCCc1ccccc1` NO

Record: `CCOC(=O)c1ccccc1C(=O)OCC` NO

Record: `CCOS(=O)(=O)OCC` NO

Record: `Cc1ccc(N)cc1N` NO

Record: `c1ccc(OP(Oc2ccccc2)Oc2ccccc2)cc1` YES

Record: `ClC(Cl)c1ccccc1` NO

Record: `O=[N+]([O-])c1ccccc1` NO
